MLD (Minimum Lethal Dose) reference
Protocol details: in vivo
Assay type: in vivo
Cond: intraperitoneal; deaths before exposure to chloroform

// known answers, use as guide
CC(C)(C)NCC(O)CN1C(=O)NC(c2ccccc2)(c2ccccc2)C1=O.Cl (stereo not shown) [Compound 6] :: 100 mg/kg
Cl.O=C1NC(c2ccc(Cl)cc2)(c2ccc(Cl)cc2)C(=O)N1CCCN1CCC(c2ccccc2)CC1 [Compound 8] :: > 178 mg/kg
Cc1ccc(C2(c3ccccc3)NC(=O)N(CCCN3CCC(c4ccccc4)CC3)C2=O)cc1.O=C(O)/C=C\C(=O)O (stereo not shown) [Compound 12] :: > 100 mg/kg

Kindly review the next compound as well.
q: Name the reported MLD (Minimum Lethal Dose) value associated with the compound Nc1ccc(C2(c3ccccc3)NC(=O)N(CCCN3CCC(c4ccccc4)CC3)C2=O)cc1 (stereo not shown) [Compound 15]
a: > 100 mg/kg

###

Protocol details: in vivo
Format: in vivo
Cond: intraperitoneal; deaths before exposure to chloroform
Observation type: MLD (Minimum Lethal Dose)

// known answers, use as guide
O=C1NC(c2ccccc2)(c2ccccc2)C(=O)N1CCCN1CCCCC1 [III, reference compound] :: 31 mg/kg
Cl.O=C1NC(c2ccccc2)(c2ccccc2)C(=O)N1CCCN1CCC(O)(c2ccccc2)CC1 [Compound 5] :: 31 mg/kg
O=C1NC(=O)C(c2ccccc2)(c2ccccc2)N1 [I, 5,5-diphenyl-2,4-imidazolidinedione] :: 1000 mg/kg
COc1ccc(C2(c3ccc(OC)cc3)NC(=O)N(CCCN3CCC(c4ccccc4)CC3)C2=O)cc1.Cl [Compound 10] :: > 178 mg/kg
Cl.O=C1NC(c2ccccc2)(c2ccc(Br)cc2)C(=O)N1CCCN1CCC(c2ccccc2)CC1 (stereo not shown) [Compound 11] :: > 100 mg/kg
Cc1ccc(C2(c3ccc(C)cc3)NC(=O)N(CCCN3CCC(O)(c4ccccc4)CC3)C2=O)cc1 [Compound 18] :: > 100 mg/kg

Kindly review the next compound as well.
q: Name the reported MLD (Minimum Lethal Dose) value associated with the compound O=C1NC(c2ccccc2)(c2ccc([N+](=O)[O-])cc2)C(=O)N1CCCN1CCC(c2ccccc2)CC1 (stereo not shown) [Compound 14]
a: > 100 mg/kg

###

Protocol details: in vivo
Format: in vivo
Cond: intraperitoneal; deaths before exposure to chloroform
MLD (Minimum Lethal Dose) reference
Give the value, in units of mg/kg, as a plain number.

// known answers, use as guide
O=C1NC(c2ccccc2)(c2ccccc2)C(=O)N1CCCN1CCC(c2ccccc2)CC1 [Compound 2] :: 320
CCN(CC)CCCN1C(=O)NC(c2ccccc2)(c2ccccc2)C1=O [II, reference compound] :: 56

q: Name the reported MLD (Minimum Lethal Dose) value associated with the compound O=C1NC(c2ccccc2)(c2ccccc2)C(=O)N1CCCN1CCOCC1 [IV, reference compound]
a: 178

###

Protocol details: in vivo
Assay type: in vivo
Cond: intraperitoneal; deaths before exposure to chloroform
Structures can show the parent of a compound that is named as a salt.
Observation type: MLD (Minimum Lethal Dose)

O=C1NC(c2ccccc2)(c2ccccc2)C(=O)N1CCN1CC=C(c2ccccc2)CC1 [Compound 4, hydrochloride] :: > 178 mg/kg
Cc1ccc(C2(c3ccc(C)cc3)NC(=O)N(CCCN3CCC(c4ccccc4)CC3)C2=O)cc1 :: > 100 mg/kg

Kindly review the next compound as well.
q: Name the reported MLD (Minimum Lethal Dose) value associated with the compound "O=C(O)/C=C\C(=O)O.O=C1NC(c2ccccc2)(c2ccccc2)C(=O)N1CCCN1CCN(c2ccccc2)CC1"
a: > 160 mg/kg
